Molecular target: CYP46A1 (Homo sapiens, UniProt Q9Y6A2)
Sequence (Q9Y6A2 with tags, fused parts or gaps): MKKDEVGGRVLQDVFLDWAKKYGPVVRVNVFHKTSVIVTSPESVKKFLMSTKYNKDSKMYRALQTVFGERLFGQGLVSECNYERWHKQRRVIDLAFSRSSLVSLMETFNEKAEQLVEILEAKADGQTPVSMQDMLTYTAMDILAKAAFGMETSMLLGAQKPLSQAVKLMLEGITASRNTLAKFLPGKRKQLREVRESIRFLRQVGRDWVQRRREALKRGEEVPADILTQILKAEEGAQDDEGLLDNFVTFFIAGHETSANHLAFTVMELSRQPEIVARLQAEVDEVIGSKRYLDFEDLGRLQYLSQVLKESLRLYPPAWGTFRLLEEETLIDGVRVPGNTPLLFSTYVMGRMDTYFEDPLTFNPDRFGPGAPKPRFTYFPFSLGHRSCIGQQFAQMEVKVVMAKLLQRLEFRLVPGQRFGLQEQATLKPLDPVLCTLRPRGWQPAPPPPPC
Experiment: Spectral binding studies
Design: 4×His (C)
Details: Δ(2-50)CYP46A1dH; read-out: estimated Kd
Method: Titrations of CYP46A1dH were carried out in 50 mM KPi, pH 7.2, containing 100 mM NaCl and 0.02% Cymal-6. […] The Kd and maximal absorbance change were estimated by non-linear least squares fitting using the quadratic form of the single-site binding equation (30).
recorded-metric: Kd (µM)
Give bare numbers, in µM.

So what's the measured Kd for this one? CC(C)CCC[C@@H](C)[C@H]1CC[C@H]2[C@@H]3CC=C4C[C@@H](O)CC[C@]4(C)[C@H]3CC[C@]12C 0.1
